Source: paper PMC10364322

system: hiPSC-CMs (iCell-Cardiomyocytes^2); conditions: 0.1 µM, 24h
ENDPOINT_NAME: Flat T-wave-like, number of observations/total well numbers

1. COc1cccc2c1C(=O)c1c(O)c3c(c(O)c1C2=O)C[C@@](O)(C(=O)CO)C[C@@H]3O[C@H]1C[C@H](N)[C@H](O)[C@H](C)O1	0/5
2. Cc1cn(-c2cc(NC(=O)c3ccc(C)c(Nc4nccc(-c5cccnc5)n4)c3)cc(C(F)(F)F)c2)cn1	0/5
3. N=C(N)c1ccc(OCCCCCOc2ccc(C(=N)N)cc2)cc1	0/6
4. COc1cc2c(Nc3ccc(Br)cc3F)ncnc2cc1OCC1CCN(C)CC1	0/5
